test: SAD study in healthy volunteers: PK in plasma, whole blood, red blood cells; assay type: in vivo, human; settings: human; HV single 1400 mg; whole blood; median
readout: Tmax (h)

>>> df
                                   compound  test_value
0  O=Cc1c(O)cccc1OC[C@@H]1COCCN1C(=O)c1cccnc1CCO [Compound I]          12

----------
test: MAD study in healthy volunteers: whole blood and plasma PK; type: in vivo, human; conditions: human; HV MAD Day 14, 25 mg QD maintenance; plasma; read-out: AUC0-24
readout: AUC(0-t) (ng·h/mL)

In [3]: df
Out[3]:
                                   compound  test_value
0  O=Cc1c(O)cccc1OC[C@@H]1COCCN1C(=O)c1cccnc1CCO [Compound I]       15900

----------
assay: SAD study in healthy volunteers: PK in plasma, whole blood, red blood cells; format: in vivo, human; settings: human, whole blood, po, 2200 mg, HV single oral 2200 mg (Cohort 8); whole blood; geometric mean; read-out: t1/2 (converted)
readout: half-life (days)

In [3]: df
Out[3]:
                    structure_smiles_string  test_value
0  O=Cc1c(O)cccc1OC[C@@H]1COCCN1C(=O)c1cccnc1CCO        24.6

----------
test: SAD study in healthy volunteers: PK in plasma, whole blood, red blood cells; type: in vivo, human; details: human; HV single oral 2200 mg (Cohort 8); plasma; median
readout: Tmax

>>> df
                                   molecule  test_value
0  O=Cc1c(O)cccc1OC[C@@H]1COCCN1C(=O)c1cccnc1CCO [Compound I]       3.5 h

----------
Experiment: SAD study in healthy volunteers: PK in plasma, whole blood, red blood cells
Assay type: in vivo, human
Conditions: human, whole blood, po, 800 mg, HV single oral 800 mg (Cohort 6); whole blood; geometric mean; read-out: AUClast
Method: To evaluate the safety and tolerability of single ascending doses of Compound I, 48 healthy volunteers (42 in the fasted state and 6 in the fed state) aged 18 to 55 years old were administered single ascending doses (50 mg to 2200 mg) of Compound I, while 16 healthy volunteers (14 in the fasted state and 2 in the fed state) aged 18 to 55 years old were administered placebo in a double blind, randomized, sequential manner. […]
readout: AUC(0-t) (µg·h/mL)

In [3]: df
Out[3]:
                    structure_smiles_string  test_value
0  O=Cc1c(O)cccc1OC[C@@H]1COCCN1C(=O)c1cccnc1CCO      103000

----------
test: SAD study in healthy volunteers: PK in plasma, whole blood, red blood cells; type: in vivo, human; details: human; HV single oral 400 mg (Cohort 5); plasma; median
readout: Tmax (h)

                                   compound  value_unit  test_value
0  O=Cc1c(O)cccc1OC[C@@H]1COCCN1C(=O)c1cccnc1CCO [Compound I]           h           1

----------
assay: Single 100 mg dose PK in SCD subjects; type: in vivo, human; settings: human; SCD single 100 mg; whole blood; median
readout: Tmax (h)

>>> df
                    structure_smiles_string  readout  value_unit  test_value
0  O=Cc1c(O)cccc1OC[C@@H]1COCCN1C(=O)c1cccnc1CCO     Tmax           h           8

----------
assay: SAD study in healthy volunteers: PK in plasma, whole blood, red blood cells; type: in vivo, human; conditions: human; HV single oral 2200 mg (Cohort 8); red blood cells (calculated conc.); median
readout: Tmax (h)

>>> print(df.to_string())
                    structure_smiles_string  test_value
0  O=Cc1c(O)cccc1OC[C@@H]1COCCN1C(=O)c1cccnc1CCO          24

----------
Test: SAD study in healthy volunteers: PK in plasma, whole blood, red blood cells
Format: in vivo, human
Settings: human, plasma, po, 50 mg, HV single oral 50 mg (Cohort 1); geometric mean
Procedure: To evaluate the safety and tolerability of single ascending doses of Compound I, 48 healthy volunteers (42 in the fasted state and 6 in the fed state) aged 18 to 55 years old were administered single ascending doses (50 mg to 2200 mg) of Compound I, while 16 healthy volunteers (14 in the fasted state and 2 in the fed state) aged 18 to 55 years old were administered placebo in a double blind, randomized, sequential manner. […]
readout: Cmax (ng/mL)

>>> print(df.to_string())
                                   molecule  readout  test_value
0  O=Cc1c(O)cccc1OC[C@@H]1COCCN1C(=O)c1cccnc1CCO [Compound I]     Cmax         400

----------
experiment: MAD study in healthy volunteers: whole blood and plasma PK; assay type: in vivo, human; conditions: human; HV MAD Day 14, 25 mg QD maintenance; whole blood; median
readout: Tmax (h)

                    structure_smiles_string  readout  test_value
0  O=Cc1c(O)cccc1OC[C@@H]1COCCN1C(=O)c1cccnc1CCO     Tmax           2

----------
assay: SAD study in healthy volunteers: PK in plasma, whole blood, red blood cells; type: in vivo, human; details: human, whole blood, 100 mg, HV single 100 mg; mean
readout: Cmax (ng/mL)

>>> print(df.to_string())
                                   compound  readout  test_value
0  O=Cc1c(O)cccc1OC[C@@H]1COCCN1C(=O)c1cccnc1CCO [Compound I]     Cmax       17400

----------
Assay: SAD study in healthy volunteers: PK in plasma, whole blood, red blood cells
Assay type: in vivo, human
Details: human; HV single oral 100 mg (Cohort 2); whole blood; median
Protocol: To evaluate the safety and tolerability of single ascending doses of Compound I, 48 healthy volunteers (42 in the fasted state and 6 in the fed state) aged 18 to 55 years old were administered single ascending doses (50 mg to 2200 mg) of Compound I, while 16 healthy volunteers (14 in the fasted state and 2 in the fed state) aged 18 to 55 years old were administered placebo in a double blind, randomized, sequential manner. […]
readout: Tmax

                                   compound  test_value
0  O=Cc1c(O)cccc1OC[C@@H]1COCCN1C(=O)c1cccnc1CCO [Compound I]        24 h

----------
test: SAD study in healthy volunteers: PK in plasma, whole blood, red blood cells; type: in vivo, human; conditions: human; HV single oral 1400 mg (Cohort 7); plasma; median
readout: Tmax (h)

>>> print(df.to_string())
                    structure_smiles_string  readout  test_value
0  O=Cc1c(O)cccc1OC[C@@H]1COCCN1C(=O)c1cccnc1CCO     Tmax         2.5

----------
assay: SAD study in healthy volunteers: PK in plasma, whole blood, red blood cells; assay type: in vivo, human; details: human; HV single oral 50 mg (Cohort 1); whole blood; geometric mean
readout: AUC(0-inf) (µg·h/mL)

>>> print(df.to_string())
                    structure_smiles_string  value_unit  test_value
0  O=Cc1c(O)cccc1OC[C@@H]1COCCN1C(=O)c1cccnc1CCO     µg·h/mL        7490

----------
Test: SAD study in healthy volunteers: PK in plasma, whole blood, red blood cells
Assay type: in vivo, human
Settings: human, red blood cells, po, 2200 mg, HV single oral 2200 mg (Cohort 8); red blood cells (calculated conc.); geometric mean
Experimental: To evaluate the safety and tolerability of single ascending doses of Compound I, 48 healthy volunteers (42 in the fasted state and 6 in the fed state) aged 18 to 55 years old were administered single ascending doses (50 mg to 2200 mg) of Compound I, while 16 healthy volunteers (14 in the fasted state and 2 in the fed state) aged 18 to 55 years old were administered placebo in a double blind, randomized, sequential manner. […]
readout: Cmax (µg/mL)

                    structure_smiles_string  readout  value_unit  test_value
0  O=Cc1c(O)cccc1OC[C@@H]1COCCN1C(=O)c1cccnc1CCO     Cmax       µg/mL         910

----------
test: SAD study in healthy volunteers: PK in plasma, whole blood, red blood cells; type: in vivo, human; conditions: human, whole blood, po, 400 mg, HV single oral 400 mg (Cohort 5); whole blood; geometric mean; read-out: AUClast
readout: AUC(0-t) (µg·h/mL)

                    structure_smiles_string  test_value
0  O=Cc1c(O)cccc1OC[C@@H]1COCCN1C(=O)c1cccnc1CCO       62200

----------
experiment: SAD study in healthy volunteers: PK in plasma, whole blood, red blood cells; assay type: in vivo, human; conditions: human, whole blood, po, 400 mg, HV single oral 400 mg (Cohort 5); whole blood; geometric mean; read-out: t1/2 (converted)
readout: half-life (days)

>>> df
                    structure_smiles_string    readout  value_unit  test_value
0  O=Cc1c(O)cccc1OC[C@@H]1COCCN1C(=O)c1cccnc1CCO  half-life        days        25.4
